This collection of values is drawn from the supplement of paper PMC9170038.

Tested on: K4 kissing-loop RNA reporter;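 note: bound reporter read as fluorescence of individual clusters on recovered sequencing chips by microscopy, with normalized cluster intensities fitted with a binding model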
Assay: apparent KD of K4 kissing-loop reporter; higher = weaker reporter binding
Conditions: Eterna round: R107; input ligand: arginine 13.2 mM
Would you mind sorting the entries by apparent KD of K4 kissing-loop reporter according to these classes? I: < 200 nM; II: ≥ 200 nM and < 400 nM; III: ≥ 400 nM

residue-codes	study-target	label-value
GCCGUAGAUUGAAGGAGCGGCACCCACGGCUCUAACACCUAAGUGAUGUUUAGGUAGUGGUGCCAGGUAGGUCGCAAUCUACGGC	K4 kissing-loop RNA reporter	I
UUUCAAAUUUAAGGAUAUUAGAUACCAGGAAAGGAGUGAUGUUCCGUGCUACGAUAGUGCUAGGGCUAAGAAGGUAAGUCUCGAG [theeternabot_sameState_KL_FMN_B_37]	K4 kissing-loop RNA reporter	I
AGGUAGUCCCUUGUUGUCAUCGAAGAUGAACGAGGACCGGUACGGCCGCCACUCGGAGUGAUGUUCCGAUGGCUGCAAAAUAAAA [MatMod 23 - Jieux - Exclusion - Tryptophan A]	K4 kissing-loop RNA reporter	I
GUUACGCAUGGAAGGAGCGCACUCCGGUUGAUCGACACAGUGAUGUUGUGGUUCAUUCGAAUGCAGGUAGGUCGCCAUGUGUAAC [Ex Arginine B K4 15]	K4 kissing-loop RNA reporter	III
UAGUGUCGCGCAGGAUAUACUGAUUGGAGUGAUGUUCCAAACAUGAACGUGAGACUUUUACAAGAAGUAGAAGGGCGUGAGACAU [Exclusion FMN B GF 21]	K4 kissing-loop RNA reporter	II

State the class of the sequence shown: UUGGCCCGGCCGGAAGGCCGGGCCUGCGAGCGAGGACCGGUACGGCCGCCACUCGGCGCAGUGAUGUUGCGUGGCCGCAAGGCCG [#2 Exclusion - Tryptophan A Attempt #1 (HarryS)]
II

Form: Item = AAGCAGUCACGCGAAGCCAUCGAAGAUGGCCGAGGACCGGUACGGCCGCCACUCGGAGUGAUGUUCCGAAGACUGCAAAAUAAAA ; Class = ?
II

Lab note: sort GGUAGCAUGGCGGCCGCCACUAAUACUUCGUAGCCUGUAGCCGGCUUCGUAGAGUGAUGUUCUAUUAGGACCGGGCCAUGCUACC into the matching apparent KD of K4 kissing-loop reporter band.
III

====

Tested on: MS2 coat protein
Test: apparent KD of MS2 coat protein; higher = weaker reporter binding
Settings: Eterna round: R107; input ligand: none
reported-metric: apparent KD of MS2 coat protein (nM)
Give just the number in nM; leave the unit off.

Please review the following examples before continuing.
residue-codes	reported-metric	scale-unit	assay-result
CCAUGGCUAGGAAGGAGCGCAUACUUCACAUGAGGAUCACCCAUGUCGAGACGUGAGUCAGUGCAGGUAGGUCGCCUAGCCAUGG [Same State - Arginine B (Freestyle 30)]	apparent KD of MS2 coat protein	nM	16.7
GGGUACAUCGCGGCCGCCACUUGUGUAAAUACAUGAGGAUCACCCAUGUCGAUGGAGACAUCGGCAAGGACCGGGUGAUGUACCG	apparent KD of MS2 coat protein	nM	130

Recorded apparent KD of MS2 coat protein of AUAAUAAGGUGAUCCUAAGUCGUACCGUAACGAGGACCGGUACGGCCGCCACUCGAACAUGAGGAUCACCCAUGUAUGUACGACA [M'-T'-T-MS2-T'' - Design 6] , please.
56.1
